// data source = paper PMC10683472

Below, each entry is listed with its recorded Raw reads.
Biological target: TLR10 (Homo sapiens, UniProt Q9BXR5)
Sequence (Q9BXR5 20-576): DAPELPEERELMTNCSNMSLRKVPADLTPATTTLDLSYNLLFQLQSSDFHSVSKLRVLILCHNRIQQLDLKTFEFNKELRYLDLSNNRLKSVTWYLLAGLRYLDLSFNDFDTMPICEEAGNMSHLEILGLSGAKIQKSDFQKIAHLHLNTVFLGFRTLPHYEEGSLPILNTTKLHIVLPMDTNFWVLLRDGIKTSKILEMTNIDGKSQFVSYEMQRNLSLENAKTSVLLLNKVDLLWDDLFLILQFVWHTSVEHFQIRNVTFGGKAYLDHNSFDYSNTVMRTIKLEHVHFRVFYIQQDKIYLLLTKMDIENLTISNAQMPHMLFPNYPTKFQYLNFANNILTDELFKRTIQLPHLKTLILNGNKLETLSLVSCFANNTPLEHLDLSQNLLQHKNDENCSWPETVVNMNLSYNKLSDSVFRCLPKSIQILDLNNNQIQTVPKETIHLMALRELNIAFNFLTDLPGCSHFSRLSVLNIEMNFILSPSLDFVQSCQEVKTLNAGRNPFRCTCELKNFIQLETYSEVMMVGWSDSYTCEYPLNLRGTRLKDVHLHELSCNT
Assay: mRNA display affinity selection against TLR10, NGS abundance
Type: binding
Parameters: Chimera protein (extracellular domain, amino acid 20-576;); Fc (chimera); purchased R&D system #6619-TR-050
Details: TLR10 selection pulldown (-); Top100 selection hits, NGS
Kindly provide the number alone.

-- ask What measured Raw reads goes with CVHFCWQRKLAY ?
-- reply 181

-- ask Queued: GTGLNRYGGINY
-- reply 882

-- ask Here is the next sequence: GLLHGNVPTWI
-- reply 232

Next:
-- ask Please give the measured Raw reads for this sequence: STHIYSKQGIRG
-- reply 116

-- ask Next entry: TYWKACAMSHIP
-- reply 67

-- ask Same read-out for IGLVRIKSS ?
-- reply 185

-- ask Same for SICFASQRLLAF
-- reply 178

-- ask Also SMLFRLANKIAF ?
-- reply 4812

-- ask Note, next up: GCLHGNVPVYY
-- reply 324

-- ask Again, but for CMSFYLQRKIAI
-- reply 169

###

Target: IRAK4 (Homo sapiens)
Sequence (Q9NWZ3 1-460): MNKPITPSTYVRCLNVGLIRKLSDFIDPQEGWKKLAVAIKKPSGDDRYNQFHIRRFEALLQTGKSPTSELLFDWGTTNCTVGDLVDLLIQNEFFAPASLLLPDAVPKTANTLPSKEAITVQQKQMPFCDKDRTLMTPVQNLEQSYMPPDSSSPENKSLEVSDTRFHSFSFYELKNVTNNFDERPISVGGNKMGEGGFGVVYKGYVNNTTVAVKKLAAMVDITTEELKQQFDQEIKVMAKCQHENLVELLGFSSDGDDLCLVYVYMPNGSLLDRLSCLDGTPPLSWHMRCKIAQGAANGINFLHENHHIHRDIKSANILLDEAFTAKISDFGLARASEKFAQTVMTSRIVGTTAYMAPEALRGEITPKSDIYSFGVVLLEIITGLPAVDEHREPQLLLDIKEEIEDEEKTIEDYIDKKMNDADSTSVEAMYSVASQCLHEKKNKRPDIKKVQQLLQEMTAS
Assay: mRNA display affinity selection against IRAK4, NGS abundance
Format: binding
Design: acids 1-460; NP_057207.2) was purchased from Carna Biosciences; purchased Carna Biosciences (Kobe, Japan)
Details: IRAK4 selection pulldown (+); Top100 selection hits, NGS
Reported Library fraction values for the following sequences.
Answer field: number only, no words.

-- ask Requested read-out: Library fraction. Entry: TCLWKRRIYS
-- reply 0.0001

-- ask Subsequent entry: RTFWRRRRYH
-- reply 0.0004

-- ask Thanks! And RLFWKRRRYA ?
-- reply 0.0004

-- ask Next sequence: SLLWKKRMYK
-- reply 0.0009

-- ask Quick one: CQRWKRRCYM
-- reply 0.0007

-- ask Now the sequence TLLWKRRNWA
-- reply 0.0007

***
-- ask Give the measured Library fraction of SLLWRKRIYR .
-- reply 0.003

-- ask Try the sequence STLWNKKIYK
-- reply 0.0005

-- ask Same thing, different sequence: AIRWKNRNYK
-- reply 0.0009

-- ask // same read-out, input: TQRYRWRNYK
-- reply 0.0001

-- ask Next: SQRWRCRNYQ
-- reply 0.0011

-- ask Then this sequence: SVFWNRRIYK
-- reply 0.0006

-- ask Thanks! And SQLYKRRIYQ ?
-- reply 0.0003

###

Target: TLR10 (Homo sapiens)
Sequence (Q9BXR5 20-576): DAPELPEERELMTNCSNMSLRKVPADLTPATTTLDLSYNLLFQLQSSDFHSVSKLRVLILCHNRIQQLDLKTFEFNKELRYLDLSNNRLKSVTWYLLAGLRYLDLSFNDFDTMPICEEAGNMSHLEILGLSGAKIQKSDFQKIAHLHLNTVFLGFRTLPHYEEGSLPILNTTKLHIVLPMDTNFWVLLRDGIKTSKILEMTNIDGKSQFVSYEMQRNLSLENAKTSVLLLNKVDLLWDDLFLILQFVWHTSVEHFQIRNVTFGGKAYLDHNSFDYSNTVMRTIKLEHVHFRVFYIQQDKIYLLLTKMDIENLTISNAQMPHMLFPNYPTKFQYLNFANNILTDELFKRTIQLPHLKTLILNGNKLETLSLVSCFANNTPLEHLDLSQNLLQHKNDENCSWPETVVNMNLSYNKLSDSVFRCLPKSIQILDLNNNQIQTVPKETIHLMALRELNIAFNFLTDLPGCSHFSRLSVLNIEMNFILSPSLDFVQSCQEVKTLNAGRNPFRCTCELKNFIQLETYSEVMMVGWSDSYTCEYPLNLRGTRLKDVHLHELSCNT
Test: mRNA display affinity selection against TLR10, NGS abundance
Assay type: binding
Design: Chimera protein (extracellular domain, amino acid 20-576;); Fc (chimera); purchased R&D system #6619-TR-050
Details: TLR10 selection pulldown (+); Top100 selection hits, NGS
The entries below come with measured Raw reads values attached.
Please state the value as a number alone, without comment.

-- ask Give the measured Raw reads of FVLNGRYLVM .
-- reply 68

-- ask Note, next up: SNIVWCGQGIIG
-- reply 16419

-- ask Next record, please: TIRFTNQNKIAF
-- reply 3740

Further cases:
-- ask What Raw reads value was documented for this sequence, CNPYRGNIGW ?
-- reply 614

-- ask Same for AQMYPIQNKIAF
-- reply 62

-- ask Next record, please: RMSLNTRYIAF
-- reply 30

-- ask And then SIMIYCNQKIRG , what is it?
-- reply 111

-- ask Param item: MMSRGMRWVL
-- reply 19

###

Test: Serum stability assay
Assay type: in vitro ADME
Details: pH 7.6; human serum, 37 °C, LC/MS; read-out: serum stability τ1/2 (converted)
*1 amine or outer side, *2 acyl side, *3 side chain or, on linkers, in order; H or OH if unused. Where a SMILES comes first, the peptide text is derived from it. Bridges are numbered along the chain shown (N, C = ends). [ ]: non-standard residue; d: D form. X2 = C=C(N[*:2])c1nc(-c2nc(-c3nc(C(=O)OC)cs3)ccc2C(=O)[*:1])cs1; Nle = CCCC[C@H](N)C(=O)O; Dha = C=C(N)C(=O)O
Measurement Label: half-life at 10 µM

-- ask Record request: half-life at 10 µM value, item C=C1NC(=O)[C@H]([C@@H](C)CC)NC(=O)[C@H](CO)NC(=O)[C@H](CC(=O)O)NC(=O)[C@H](CCCNC(=N)N)NC(=O)[C@H](C)NC(=O)[C@H](CCCC)NC(=O)C(=C)NC(=O)CNC(=O)[C@@H]2CCCN2C(=O)[C@H](Cc2c[nH]c3ccccc23)NC(=O)c2ccc(-c3nc(C(=O)OC)cs3)nc2-c2csc(n2)C(=C)NC1=O [TL18] (WPG[Dha][Nle]ARDSI[Dha]; linker N-C via X2)
-- reply 2.5 h

###

The following sequences are shown together with reported Raw reads values.
Biological target: TLR10 (Homo sapiens)
Sequence (Q9BXR5 20-576): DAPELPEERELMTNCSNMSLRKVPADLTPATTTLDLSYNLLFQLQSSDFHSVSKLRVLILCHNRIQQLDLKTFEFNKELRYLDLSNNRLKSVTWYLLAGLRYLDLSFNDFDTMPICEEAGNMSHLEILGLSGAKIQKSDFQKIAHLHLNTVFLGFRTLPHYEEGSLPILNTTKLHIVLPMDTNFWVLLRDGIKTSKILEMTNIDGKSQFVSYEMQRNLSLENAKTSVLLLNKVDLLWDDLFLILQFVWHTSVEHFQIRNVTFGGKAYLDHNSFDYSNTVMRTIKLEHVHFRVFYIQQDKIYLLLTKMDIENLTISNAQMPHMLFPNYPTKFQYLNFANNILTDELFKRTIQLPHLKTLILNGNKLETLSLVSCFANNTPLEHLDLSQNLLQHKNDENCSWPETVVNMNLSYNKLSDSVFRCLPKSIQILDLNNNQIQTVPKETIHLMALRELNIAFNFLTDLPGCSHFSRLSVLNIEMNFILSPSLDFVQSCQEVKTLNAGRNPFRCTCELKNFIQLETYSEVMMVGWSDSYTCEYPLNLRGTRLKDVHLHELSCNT
Assay: mRNA display affinity selection against TLR10, NGS abundance
Format: binding
Design: Chimera protein (extracellular domain, amino acid 20-576;); Fc (chimera); purchased R&D system #6619-TR-050
Conditions: TLR10 selection pulldown (-); Top100 selection hits, NGS
// response body must contain only the number

-- ask Could you tell me which Raw reads is on file for TNPYGGNVGW ?
-- reply 28345

-- ask Also SKIIIRGQGIRG , if possible.
-- reply 284

-- ask And what about the sequence SNSNRYGGLITS ?
-- reply 582

-- ask Cool, now SNIVWCGQGIIG
-- reply 9156

-- ask How about IGRVCIRSS ?
-- reply 175

***
-- ask # get_value(readout='Raw reads', item= SIEFRRMRAIAY )
-- reply 80

-- ask Moving on to the next sequence: AINFELTNKIAF
-- reply 1556

-- ask Try the sequence SMCVWARQKIVG
-- reply 64

-- ask How about AVRNKYGGNAAS ?
-- reply 1475

-- ask Query AVEFRLQRAIAY next
-- reply 111

-- ask Lookup RIETARLVIL
-- reply 168

-- ask Here is the next sequence: RILFARQNLAAF
-- reply 338

-- ask What about this sequence? SRTIYRCQSIRG
-- reply 149

-- ask # iterate: AMKLSARYIAF
-- reply 86

-- ask Next sequence up: VGRVYIKSS
-- reply 434

-- ask Follow-up item: SITFPMQRHIAF
-- reply 133

-- ask Now the sequence ALVTQHVNVY
-- reply 193

-- ask Also check IGKTYVASS
-- reply 106

-- ask Ok, now SVDFGQVVIH
-- reply 65

-- ask Try this sequence next: TMCFTFSKMVAF
-- reply 69
